Molecular target: PI3Kalpha (Homo sapiens)
Sequence (P42336 whole entry): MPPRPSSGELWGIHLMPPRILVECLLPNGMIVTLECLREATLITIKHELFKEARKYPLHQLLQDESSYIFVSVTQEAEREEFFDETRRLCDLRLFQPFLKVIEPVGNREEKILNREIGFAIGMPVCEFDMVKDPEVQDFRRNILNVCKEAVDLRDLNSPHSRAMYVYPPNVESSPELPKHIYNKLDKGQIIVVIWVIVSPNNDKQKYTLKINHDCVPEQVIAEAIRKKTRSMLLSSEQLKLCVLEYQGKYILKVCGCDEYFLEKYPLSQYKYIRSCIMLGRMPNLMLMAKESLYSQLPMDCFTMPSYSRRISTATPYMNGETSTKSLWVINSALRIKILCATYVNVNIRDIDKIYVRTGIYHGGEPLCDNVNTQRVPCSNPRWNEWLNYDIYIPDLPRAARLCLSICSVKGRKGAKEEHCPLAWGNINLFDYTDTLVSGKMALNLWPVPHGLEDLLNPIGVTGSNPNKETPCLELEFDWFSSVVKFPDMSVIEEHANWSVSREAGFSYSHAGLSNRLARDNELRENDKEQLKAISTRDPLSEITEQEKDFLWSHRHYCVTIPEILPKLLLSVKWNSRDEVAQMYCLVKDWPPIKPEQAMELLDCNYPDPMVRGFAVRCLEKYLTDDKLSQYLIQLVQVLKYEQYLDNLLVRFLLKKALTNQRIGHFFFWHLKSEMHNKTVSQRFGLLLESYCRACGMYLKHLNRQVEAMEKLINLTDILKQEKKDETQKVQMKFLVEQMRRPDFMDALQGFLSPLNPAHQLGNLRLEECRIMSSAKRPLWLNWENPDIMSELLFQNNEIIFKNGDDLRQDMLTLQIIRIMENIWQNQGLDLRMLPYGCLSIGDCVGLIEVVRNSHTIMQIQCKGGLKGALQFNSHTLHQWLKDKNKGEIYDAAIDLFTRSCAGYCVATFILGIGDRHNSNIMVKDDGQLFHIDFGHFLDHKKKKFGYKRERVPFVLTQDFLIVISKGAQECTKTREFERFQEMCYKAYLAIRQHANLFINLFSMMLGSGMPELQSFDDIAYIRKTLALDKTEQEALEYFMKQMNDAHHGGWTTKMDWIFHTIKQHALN
Sequence (P27986 whole entry partner): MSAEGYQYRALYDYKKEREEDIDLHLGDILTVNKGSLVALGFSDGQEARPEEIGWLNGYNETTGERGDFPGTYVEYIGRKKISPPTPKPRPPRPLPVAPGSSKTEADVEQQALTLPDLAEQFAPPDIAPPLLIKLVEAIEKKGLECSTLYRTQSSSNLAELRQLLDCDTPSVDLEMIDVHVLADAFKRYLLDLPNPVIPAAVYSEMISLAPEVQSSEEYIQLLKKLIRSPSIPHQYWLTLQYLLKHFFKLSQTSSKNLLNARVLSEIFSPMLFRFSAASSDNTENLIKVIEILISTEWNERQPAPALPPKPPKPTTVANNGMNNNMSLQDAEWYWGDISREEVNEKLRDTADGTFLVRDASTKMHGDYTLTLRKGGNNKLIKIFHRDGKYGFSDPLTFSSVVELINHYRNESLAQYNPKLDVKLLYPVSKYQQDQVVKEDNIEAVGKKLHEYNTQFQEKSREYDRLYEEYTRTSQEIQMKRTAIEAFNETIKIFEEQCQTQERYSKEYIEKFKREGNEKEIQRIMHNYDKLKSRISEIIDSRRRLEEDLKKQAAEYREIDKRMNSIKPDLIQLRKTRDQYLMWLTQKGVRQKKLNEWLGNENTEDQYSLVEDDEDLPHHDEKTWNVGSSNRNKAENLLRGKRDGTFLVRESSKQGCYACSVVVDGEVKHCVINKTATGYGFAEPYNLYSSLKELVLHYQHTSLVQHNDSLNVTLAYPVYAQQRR
Each record here notes measured IC50.

Consider the following illustrative entries.
INSERT INTO assay_data (cpd_smiles, target_or_test_system, measured_value) VALUES
  ('Nc1nc(Cl)cc(N2CCOc3ccc(-c4cnc5sc(N)nc5c4)cc3C2)n1', 'PI3Kalpha (Homo sapiens)', '100 to 500 nM'),
  ('Nc1cc(N2CCOc3ccc(-c4cnc5sc(N)nc5c4)cc3C2)nc(Cl)n1', 'PI3Kalpha (Homo sapiens)', '500 to 2500 nM'),
  ('C=Cc1c(N2CCOc3ccc(-c4cnc5sc(N)nc5c4)cc3C2)nc(N)nc1C(F)(F)F', 'PI3Kalpha (Homo sapiens)', '≤ 100 nM');

Alright, here's another compound for you.
Recorded IC50 of Nc1nc2cc(-c3ccc4c(c3)CN(c3ccnc([N+](=O)[O-])c3)CCO4)cnc2s1 , please. 500 to 2500 nM
